systemUnderTest: Pseudomonas aeruginosa LpxC enzyme (Pseudomonas aeruginosa, UniProt P47205)
Construct: made in house; host or cells: E. coli
Sequence (P47205 1-303): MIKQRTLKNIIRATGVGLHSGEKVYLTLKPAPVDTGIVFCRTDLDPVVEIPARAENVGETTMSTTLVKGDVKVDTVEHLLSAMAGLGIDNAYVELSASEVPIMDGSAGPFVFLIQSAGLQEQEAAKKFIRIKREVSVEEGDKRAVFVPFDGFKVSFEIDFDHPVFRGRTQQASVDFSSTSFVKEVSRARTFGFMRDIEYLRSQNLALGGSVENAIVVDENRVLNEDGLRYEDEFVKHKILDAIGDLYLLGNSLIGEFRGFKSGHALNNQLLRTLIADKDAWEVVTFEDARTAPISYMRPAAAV
assayProcedure: IC50 assay, LpxC enzyme from P. aeruginosa (PA LpxC enzyme IC50)
Format: biochemical
conditionInfo: Table 3; LpxC enzyme 0.1 nM, 25° C., 1 hour; read-out: PA:IC50
For each record, write down the corresponding IC50.
Please respond with the number in nM and leave the unit unwritten.

Kindly note the recorded IC50 for COC(C)c1ccc(-c2cc(=O)n(CCC(C)(C(=O)NO)S(C)(=O)=O)cc2F)cc1 (stereo not drawn) , which is 7.6

IC50 measured on CC(CCn1cc(F)c(-c2ccncc2F)cc1=O)(C(=O)NO)S(C)(=O)=O (stereo not drawn) = 8.3

Summary for this compound, CC(CCn1cc(F)c(-c2ccc3c(c2)CNC3=O)cc1=O)(C(=O)NO)S(C)(=O)=O (stereo not drawn) : IC50 is 7.2

* * *

Tested on: Escherichia coli EC-1: VOGEL, mouse virulent
assayProcedure: MIC determination, EC-1
Type: cell-based
conditionInfo: Escherichia coli, read-out: EC-1 (MIC), Table 3, lower of duplicate values
Method: The in vitro antibacterial activity of compounds described in the Examples was evaluated by minimum inhibitory concentration (MIC) testing according to Clinical and Laboratory Standards Institute (CLSI). […] The MIC values described in Table 2 and 3 below were derived from assays wherein each test compound was evaluated in duplicate. […] While a single MIC is reported for each compound and each microorganism, the reader should not conclude that each compound was only tested once. […]
I'd be grateful if you could share measured MIC for these entries.

MIC in this record for Cn1cnc2cc(-c3cc(=O)n(CCC(C)(C(=O)NO)S(C)(=O)=O)cc3F)cnc21 (stereo not drawn) : > 64 mg/L

Entry CC(CCn1cc(F)c(-c2ccc(CO)nc2)cc1=O)(C(=O)NO)S(C)(=O)=O (stereo not drawn) — recorded MIC = > 64 mg/L

CC(CCn1cc(F)c(-c2cccnc2)cc1=O)(C(=O)NO)S(C)(=O)=O (stereo not drawn) yielded MIC of > 64 mg/L

* * *

Tested on: Escherichia coli EC-1: VOGEL, mouse virulent
assayProcedure: MIC determination, EC-1
Format: cell-based
conditionInfo: Escherichia coli, read-out: EC-1 (MIC), Table 2, lower of duplicate values
measuredProperty: MIC (µg/mL)
Write the number in µg/mL without appending the unit.

Form: compound = `C[C@@](CCn1cc(F)c(-c2ccc(-c3ncccn3)cc2)cc1=O)(C(=O)NO)S(C)(=O)=O` ; MIC = 0.125

Item: `[2H]C([2H])([2H])Oc1ccc(-c2cc(=O)n(CC[C@](C)(C(=O)NO)S(C)(=O)=O)cc2F)cc1` | MIC: 0.25

Sure, the documented MIC for `C[C@@](CCn1cc(F)c(-c2ccc3nccnc3c2)cc1=O)(C(=O)NO)S(C)(=O)=O` is 4

The compound `CCOc1ccc(-c2cc(=O)n(CC[C@](C)(C(=O)NO)S(C)(=O)=O)cc2F)cc1` showed MIC equal to 0.25

Lookup result for `Cc1cc(-c2cc(=O)n(CC[C@](C)(C(=O)NO)S(C)(=O)=O)cc2F)ccc1-n1nccn1` ; measured MIC: 0.5

Record `C[C@@](CCn1cc(F)c(-c2ccc(-n3nccn3)c(F)c2)cc1=O)(C(=O)NO)S(C)(=O)=O` . Reported MIC: 0.5

Lab note: measured MIC of `Cc1cc(-c2cc(=O)n(CC[C@](C)(C(=O)NO)S(C)(=O)=O)cc2F)ccc1F` was 0.5

`Cc1cccc(-c2cc(=O)n(CC[C@](C)(C(=O)NO)S(C)(=O)=O)cc2F)c1` has a reported MIC of 1

Record `C[C@@](CCn1cc(F)c(-c2ccc(OC(F)(F)F)cc2)cc1=O)(C(=O)NO)S(C)(=O)=O` . Reported MIC: 0.25

Lab book: MIC of `C[C@@](CCn1cc(F)c(-c2ccccc2)c(O)c1=O)(C(=O)NO)S(C)(=O)=O` noted as 16

Summary for this compound, `C[C@@](CCn1cc(F)c(-c2ccc(OCC(F)(F)F)cc2)cc1=O)(C(=O)NO)S(C)(=O)=O` : MIC is 0.25

* * *

Exercise: state measured MIC for each of the compounds provided.
Test system: Escherichia coli EC-1: VOGEL, mouse virulent
assayProcedure: MIC determination, EC-1
Type: cell-based
conditionInfo: Escherichia coli, read-out: EC-1 (MIC), Table 3, lower of duplicate values

// MIC lookup, compound = COc1ccc(OC)c(-c2cc(=O)n(CCC(C)(C(=O)NO)S(C)(=O)=O)cc2F)c1 (centres unmarked) , result: > 64 µg/mL

Reported MIC for CC(=O)Nc1ccc(-c2cc(=O)n(CCC(C)(C(=O)NO)S(C)(=O)=O)cc2F)cc1 (centres unmarked) was 64 µg/mL

// field: MIC; key: CC(CCn1cc(F)c(-c2ccc(CCC#N)cc2)cc1=O)(C(=O)NO)S(C)(=O)=O (centres unmarked) ; value = 32 µg/mL

Reported MIC ( CC(CCn1cc(F)c(-c2ccc(C#N)c(F)c2)cc1=O)(C(=O)NO)S(C)(=O)=O (centres unmarked) ) = 32 µg/mL

Kindly note the recorded MIC for CC(CCn1cc(F)c(-c2ccc3c(c2)C(=O)NC3)cc1=O)(C(=O)NO)S(C)(=O)=O (centres unmarked) , which is > 64 µg/mL

* * *

System: Escherichia coli EC-1: VOGEL, mouse virulent
assayProcedure: MIC determination, EC-1
Format: cell-based
conditionInfo: Escherichia coli, read-out: EC-1 (MIC), Table 2, lower of duplicate values
Answer each item with its documented log10 MIC.
Form field - Quantity: MIC; Unit: mg/L; Scale: log10

// log10 MIC value for CSc1ccc(-c2cc(=O)n(CC[C@](C)(C(=O)NO)S(C)(=O)=O)cc2F)cc1 [Example 9] : -0.60

Lab book: log10 MIC of C[C@@](CCn1cc(F)c(-c2ccc(F)cc2)cc1=O)(C(=O)NO)S(C)(=O)=O [Example 31] noted as 0.00

The compound identified as C[C@@](CCn1cc(F)c(-c2ccc(Cl)cc2F)cc1=O)(C(=O)NO)S(C)(=O)=O [Example 16] registered its log10 MIC at -0.60

The reported value for [2H]C([2H])([2H])C([2H])([2H])Oc1ccc(-c2cc(=O)n(CC[C@](C)(C(=O)NO)S(C)(=O)=O)cc2F)cc1 [Example 45] in terms of log10 MIC is -0.90

Noted for [2H]C([2H])([2H])c1ccc(-c2cc(=O)n(CC[C@](C)(C(=O)NO)S(C)(=O)=O)cc2F)cc1 [Example 43] : its log10 MIC reads -0.60

Value of measured log10 MIC for the entry COc1cnc(-c2ccc(-c3cc(=O)n(CC[C@](C)(C(=O)NO)S(C)(=O)=O)cc3F)cc2)nc1 [Example 21] : -0.90

Recorded log10 MIC (compound COc1cccc(-c2cc(=O)n(CC[C@](C)(C(=O)NO)S(C)(=O)=O)cc2F)c1F [Example 17] ): -0.30

Documented log10 MIC of C[C@@](CCn1cc(F)c(-c2cccc(Oc3nccs3)c2)cc1=O)(C(=O)NO)S(C)(=O)=O [Example 49] : -0.60

Measured log10 MIC, C[C@@](CCn1cc(F)c(-c2ccc3c(c2)CCCO3)cc1=O)(C(=O)NO)S(C)(=O)=O [Example 8] : -0.30

Lab book: log10 MIC of C[C@@](CCn1cc(F)c(-c2ccc3c(c2)CCO3)cc1=O)(C(=O)NO)S(C)(=O)=O [Example 5] noted as 0.00

get_value(item= C[C@@](CCn1cc(F)c(-c2ccc(-c3ncco3)cc2)cc1=O)(C(=O)NO)S(C)(=O)=O [Example 42] , readout=log10 MIC) returns -0.60

Form: compound = CCCc1ccc(-c2cc(=O)n(CC[C@](C)(C(=O)NO)S(C)(=O)=O)cc2F)cc1 [Example 11] ; log10 MIC = -0.90

Short answer for C[C@@](CCn1cc(F)c(-c2ccc(OC(F)F)c(F)c2)cc1=O)(C(=O)NO)S(C)(=O)=O [Example 35] : log10 MIC was 0.00

Reported log10 MIC for C[C@@](CCn1cc(F)c(-c2ccc3c(c2)OC(F)(F)O3)cc1=O)(C(=O)NO)S(C)(=O)=O [Example 47] was -0.60

log10 MIC recorded for this compound, C[C@@](CCn1cc(F)c(C#Cc2ccccc2)cc1=O)(C(=O)NO)S(C)(=O)=O [Example 48] , is -1.22

Data point: C[C@@](CCn1cc(F)c(-c2ccccc2F)cc1=O)(C(=O)NO)S(C)(=O)=O [Example 4] ; log10 MIC = 0.30

Reported log10 MIC of C[C@@](CCn1cc(F)c(-c2ccccc2)c(F)c1=O)(C(=O)NO)S(C)(=O)=O [Example 38] : 0.00

// log10 MIC value for COc1cccc(-c2cc(=O)n(CC[C@](C)(C(=O)NO)S(C)(=O)=O)cc2F)c1 [Example 25] : 0.00

Measured log10 MIC of C[C@@](CCn1cc(F)c(-c2ccc(-c3ccon3)cc2)cc1=O)(C(=O)NO)S(C)(=O)=O [Example 41] : -0.30

Input C[C@@](CCn1cc(F)c(-c2ccc(OC3CC3)cc2)cc1=O)(C(=O)NO)S(C)(=O)=O [Example 46] . Output log10 MIC: -0.90
